# tested system: T1, P2-AA-1HGe-T
# T1 chain: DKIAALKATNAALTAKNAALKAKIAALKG
# assay summary: two-hybrid library CCmax;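 further: natural log of median RNA to DNA barcode read ratio; higher means stronger binding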
# test parameters: mean of both orientations
Values of interaction score strictly less than 2 map to yes, and values of at least 2 map to no.

# input Criterion: interaction score strictly below 2. Is it met by DEIAALEAHNAALHAENAALEAEIAALEG [P1-AA-1HGe-H] ?
# output yes
